pIC50 listing for selected compounds.
Target: mutant B-RAF (Homo sapiens, UniProt P15056, V600E)
Construct: purchased Upstate (Charlottesville, Va.)
Sequence (P15056 whole entry V600E): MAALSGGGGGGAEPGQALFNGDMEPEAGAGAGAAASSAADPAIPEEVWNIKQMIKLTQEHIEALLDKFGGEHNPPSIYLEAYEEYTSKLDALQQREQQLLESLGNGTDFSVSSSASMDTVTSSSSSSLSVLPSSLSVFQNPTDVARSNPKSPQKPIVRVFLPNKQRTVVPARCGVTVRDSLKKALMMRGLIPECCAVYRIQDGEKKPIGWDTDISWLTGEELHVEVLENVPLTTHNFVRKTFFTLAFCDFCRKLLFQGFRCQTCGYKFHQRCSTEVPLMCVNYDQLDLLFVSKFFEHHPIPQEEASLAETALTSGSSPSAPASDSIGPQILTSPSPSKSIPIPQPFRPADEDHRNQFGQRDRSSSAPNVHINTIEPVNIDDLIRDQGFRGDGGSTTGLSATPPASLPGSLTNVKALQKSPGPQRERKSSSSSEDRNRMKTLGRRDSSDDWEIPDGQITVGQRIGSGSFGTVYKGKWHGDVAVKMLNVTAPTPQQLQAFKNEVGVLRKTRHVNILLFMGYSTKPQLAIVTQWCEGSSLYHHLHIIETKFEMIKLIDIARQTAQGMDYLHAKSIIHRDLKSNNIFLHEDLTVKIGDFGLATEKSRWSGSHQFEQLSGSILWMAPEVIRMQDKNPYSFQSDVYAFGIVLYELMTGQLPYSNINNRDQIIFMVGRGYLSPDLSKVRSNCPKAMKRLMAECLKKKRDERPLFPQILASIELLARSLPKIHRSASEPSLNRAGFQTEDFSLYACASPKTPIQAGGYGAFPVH
Experiment: Measurement of RAF activity (MEK-1 phosphorylation)
Format: biochemical
Remember the convention: pIC50 equals -log10 of concentration in molar.

O=P(O)(O)Oc1cccc(-c2nc3occn3c2-c2ccnc(N[C@@H]3CCCN(S(=O)(=O)c4ccc(Cl)cc4)C3)n2)c1 | 5.72

Indicate its recorded pIC50; the compound in question is Cn1ccc(S(=O)(=O)N2CCC[C@@H](Nc3nccc(-c4c(-c5ccc(F)c(OP(=O)(O)O)c5)nc5occn45)n3)C2)n1
5.98

Indicate its recorded pIC50; the compound in question is Cn1ccc(S(=O)(=O)N2CCC[C@@H](Nc3nccc(-c4c(-c5cccc(OP(=O)(O)O)c5)nc5sccn45)n3)C2)n1
5.62

Indicate its recorded pIC50; the compound in question is O=P(O)(O)Oc1cccc(-c2nc3occn3c2-c2ccnc(NC3CCN(S(=O)(=O)c4ccc(F)cc4)CC3)n2)c1
5.93

Indicate its recorded pIC50; the compound in question is O=P(O)(O)Oc1cccc(-c2nc3sccn3c2-c2ccnc(N[C@@H]3CCCN(S(=O)(=O)c4ccc(Cl)cc4)C3)n2)c1
5.72

Ref: patent US20100183600A1
